Tested on: plasma ALP (80-90% containing TNAP)
Test protocol: Inhibitory test of plasma TNAP activity in B6 mouse
Type: in vivo
Recorded conditions: oral, dose 3 mg/kg, average 0-6 h after administration
Reported Plasma ALP inhibition (6 h ave. inhibition %) values for the following compounds.
Respond with the bare value in %.

COc1ccc(Cl)cc1S(=O)(=O)[N-]c1cnc2c(c1)-c1ccnn1CCO2.[K+]	29.4

## Input Give the measured Plasma ALP inhibition (6 h ave. inhibition %) of CCOc1ccc(F)cc1S(=O)(=O)[N-]c1cnc2c(c1)-c1ccnn1[C@@H](C)CO2.[K+] .
## Output 27.5

###

Test system: plasma ALP (80-90% containing TNAP)
Test protocol: Inhibitory test of plasma TNAP activity in B6 mouse
Assay type: in vivo
Recorded conditions: oral, dose 1 mg/kg, average 0-6 h after administration
# label = 1 if Plasma ALP inhibition (6 h ave. inhibition %) >= 60% else 0

CCc1nnc2n1CCOc1ncc([N-]S(=O)(=O)c3cc(Cl)ccc3OC)cc1-2.[K+]	0
COc1ccc(Cl)cc1S(=O)(=O)[N-]c1cnc2c(c1)CN1C(=O)[C@@H](O)C[C@H]1CO2.[K+]	1
COc1ccc(Cl)cc1S(=O)(=O)[N-]c1cnc2c(c1)-c1nnc(C)n1CCO2.[K+]	0
CNC(=O)O[C@H]1C[C@@H]2COc3ncc([N-]S(=O)(=O)c4cc(Cl)ccc4OC)cc3C(=O)N2C1.[K+]	0

Now look at this entry.
## Input Confirm if Plasma ALP inhibition (6 h ave. inhibition %) reported for the compound CCOc1ccc(F)cc1S(=O)(=O)[N-]c1cnc2c(c1)CN1C(=O)COC[C@H]1CO2.[K+] is 60% or above.
## Output 1
